B1: 1ZHC (parent)
chain: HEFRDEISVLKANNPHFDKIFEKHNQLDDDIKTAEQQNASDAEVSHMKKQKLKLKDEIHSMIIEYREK

Variants of: B1
assay.explanation: folding stability dG (cDNA display proteolysis); higher = more stable
conditions.used: PBS, room temperature
So I've got a bunch of variants here, and I need their folding stability dG values.
One number for each entry, in kcal/mol.

Could you report folding stability dG for every entry in the following list?
1. Q36G
2. F3Y
3. N13G

1. 0.883
2. 1.05
3. 0.346
